EXPERIMENT_NOTES: inhibitors of mutant huntingtin aggregation, primary screen, imaging, exon1htt(103Q)mCFP cells, high-content imaging (AID 483);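 note: compound exposure lasted 3 days before fixation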
STUDY_CONDITIONS: exon1htt(103Q)mCFP cell line, aggregate imaging, at 2 µM; active compounds read high
PROPERTY_LABEL: inhibition of aggregation (%)
Give your result in % as a bare value.

Please give the documented inhibition of aggregation of `Nc1nc(NC(=O)c2cccs2)nn1-c1ccccc1`
2.6

Please give the documented inhibition of aggregation of `CC[N+](C)(C)c1cccc(O)c1`
10.2

Please give the documented inhibition of aggregation of `COc1ccc(C2=Nn3c(nnc3-c3ccccc3)SC2)cc1OC`
-6.6

Please give the documented inhibition of aggregation of `C[C@@H]1C[C@H]2[C@@H]3C[C@H](F)C4=CC(=O)C=C[C@]4(C)[C@@]3(F)[C@@H](O)C[C@]2(C)[C@@]1(O)C(=O)COC(=O)C(C)(C)C`
-3

Please give the documented inhibition of aggregation of `COc1ccc(Cn2c(CCCO)nc3ccccc32)cc1OC`
-17

Please give the documented inhibition of aggregation of `Cc1ccc(-n2ncc3c(N4CCN(c5ccccc5)CC4)ncnc32)c(C)c1`
-1.5

Please give the documented inhibition of aggregation of `CCn1cc(C(=O)O)c(=O)c2cc(F)c(N3CCNCC3)cc21`
13

Please give the documented inhibition of aggregation of `Clc1ccc2c(c1)C(N1CCNCC1)=Nc1ccccc1O2`
16.3

Please give the documented inhibition of aggregation of `CCOc1nc(SCCOc2ccccc2)nc(N(C)C)n1`
4.3

Please give the documented inhibition of aggregation of `NC(N)=NC(N)=NCCc1ccccc1`
-8.6

Please give the documented inhibition of aggregation of `C=CCn1c(SCC(=O)NC23CC4CC(CC(C4)C2)C3)nc(O)cc1=O`
-0.4

Please give the documented inhibition of aggregation of `C[C@]12CCC(=O)C=C1CC[C@@H]1[C@@H]2CC[C@@]2(C)[C@H]1CC[C@]2(O)C(=O)CO`
27.5

Please give the documented inhibition of aggregation of `Nc1nc(N)c2nc(-c3ccccc3)c(N)nc2n1`
-9.9

Please give the documented inhibition of aggregation of `COc1ccccc1-n1cnc2cc(NS(=O)(=O)c3ccccc3)ccc21`
1.2

Please give the documented inhibition of aggregation of N#CC1=C(N)N(c2ccccc2)C(c2ccccc2)C1(C#N)C#N (centres undefined)
-8

Please give the documented inhibition of aggregation of `CC1(C)Cc2c(sc3c2C2=NCCN2C=N3)CS1`
-1.3

Please give the documented inhibition of aggregation of `Cc1cc(C)nc(NC(=O)c2ccc(OC(C)C)cc2)n1`
-1.7

Please give the documented inhibition of aggregation of `O=C(NCc1cccnc1)/C(=N\O)c1ccccc1`
-9.8

Please give the documented inhibition of aggregation of `CCN1CCN(c2nc3c(C)cccn3c(=O)c2/C=C(\C#N)S(=O)(=O)c2ccccc2)CC1`
-13.4

Please give the documented inhibition of aggregation of CC(NCCc1ccc(O)cc1)C(O)c1ccc(O)cc1 (centres undefined)
-2.5

Please give the documented inhibition of aggregation of Cc1ccc(/C(O)=C2/C(=O)C(=O)N(Cc3ccco3)C2c2cccs2)cc1 (centres undefined)
-9.7

Please give the documented inhibition of aggregation of `CC(C)(C)c1ccc(O)c(N)c1`
18.9

Please give the documented inhibition of aggregation of `Cc1nc(Sc2cccn2C)c(C(F)(F)F)c(=O)[nH]1`
4.3

Please give the documented inhibition of aggregation of `CCCCNc1cc(C(=O)O)cc(S(N)(=O)=O)c1Oc1ccccc1`
-13.4

Please give the documented inhibition of aggregation of `c1ccc(-c2nnc(OCCN3CCOCC3)c3ccccc23)cc1`
18.6

Please give the documented inhibition of aggregation of `CC(=O)OCC(=O)[C@@]12OC3(CCCC3)O[C@@H]1C[C@H]1[C@@H]3CCC4=CC(=O)C=C[C@]4(C)[C@@]3(F)[C@@H](O)C[C@@]12C`
-15.8

Please give the documented inhibition of aggregation of `N#Cc1c(N2CCOCC2)nc(N2CCCCC2)c2c1CCN(C1CCCCC1)C2`
6.4

Please give the documented inhibition of aggregation of `Cc1nn(-c2ccccc2)c2c1C(=O)NC(=O)C(C)(C)C2`
9.8

Please give the documented inhibition of aggregation of `C[C@]12CCC(=O)C=C1CC[C@@H]1[C@@H]2C(=O)C[C@@]2(C)[C@H]1CC[C@]2(O)C(=O)CO`
21.4

Please give the documented inhibition of aggregation of COC(=O)c1ccc(C2NC(C(=O)O)CS2)cc1 (centres undefined)
3.9

Please give the documented inhibition of aggregation of CN=c1sc2ccccc2n1CC(O)COCc1ccco1 (centres undefined)
6.5

Please give the documented inhibition of aggregation of `CN1CCN(CCCN2c3ccccc3Sc3ccc(Cl)cc32)CC1`
6.1

Please give the documented inhibition of aggregation of `Cn1c(=O)c2c(ncn2CCO)n(C)c1=O`
-12.9

Please give the documented inhibition of aggregation of `Cc1ccc(-c2nnc(-c3cccc(Br)c3)o2)cc1`
-23.2

Please give the documented inhibition of aggregation of Cc1c(O)c(CN2CCCC(C)C2)cc2c3c(c(=O)oc12)CCC3 (centres undefined)
-0.7

Please give the documented inhibition of aggregation of NS(=O)(=O)c1cc2c(cc1Cl)NC(C1C[C@H]3C=C[C@@H]1C3)NS2(=O)=O (some centres undefined)
-11.7

Please give the documented inhibition of aggregation of `C#CCN(C)Cc1ccccc1`
11.2

Please give the documented inhibition of aggregation of COc1ccc(/C(O)=C2\C(=O)C(=O)N(c3cc(C)on3)C2c2ccccc2OC)cc1 (centres undefined)
-8.1

Please give the documented inhibition of aggregation of `Cc1cc(C)n(CC(=O)n2c3c(c4ccccc42)CCCC3)n1`
13.5

Please give the documented inhibition of aggregation of `CC1=NN(c2ccccc2)C(=O)C1`
2.5

Please give the documented inhibition of aggregation of CCOc1ccccc1N1CCN(c2nc3ccccc3nc2C(C#N)C(=O)OC)CC1 (centres undefined)
-3.8

Please give the documented inhibition of aggregation of CC1(C)S[C@@H]2[C@H](NC(=O)C(C(=O)O)c3ccccc3)C(=O)N2[C@H]1C(=O)O (some centres undefined)
-7.6

Please give the documented inhibition of aggregation of `CC(=O)OCC(=O)[C@@]1(O)[C@H](C)C[C@H]2[C@@H]3CCC4=CC(=O)C=C[C@]4(C)[C@@]3(F)[C@@H](O)C[C@@]21C`
0.4

Please give the documented inhibition of aggregation of `O=C(NO)c1ccccc1O`
-2.3
